Test: % non-volatile, 110° C. for 1 hour (ASTM D2369)
Format: physicochemical
Conditions: 110° C. for 1 hour
Hi! Just check whether % non-volatile @ 110° C. for 1 hour is below 60%. Below gives rule met, equal or above gives rule not met.

{"COMPOUND": "CC(C)C(=O)C(C)(C)C(=O)OCC(C)(C)C(O)C(C)C (stereo not drawn)", "ASSIGNED_CATEGORY": "rule not met"}
{"COMPOUND": "CC(C)C(=O)C(C)(C)C(=O)OCC(C)(C)CO", "ASSIGNED_CATEGORY": "rule met"}
{"COMPOUND": "CC(C)C(=O)C(C)(C)C(=O)OCCOCCOCCOC(=O)C(C)(C)C(=O)C(C)C", "ASSIGNED_CATEGORY": "rule not met"}
{"COMPOUND": "CCCCOCCOCCOC(=O)C(C)(C)C(=O)C(C)C", "ASSIGNED_CATEGORY": "rule not met"}
{"COMPOUND": "CC(C)C(=O)C(C)(C)C(=O)OCCO", "ASSIGNED_CATEGORY": "rule met"}

---

Test: Hydrolytic stability in latex at 120° F., pH and Brookfield viscosity
Type: physicochemical
Settings: Rhoplex AC 2508, 10 phr, 120° F., 3 weeks
Entries and their measured pH follow.
RECORDED_METRIC: pH

{"COMPOUND": "CC(C)C(=O)C(C)(C)C(=O)OCCOCCOCCOC(=O)C(C)(C)C(=O)C(C)C", "RECORDED_METRIC": "pH", "MEASUREMENT": 8.3}
{"COMPOUND": "CC(C)C(=O)C(C)(C)C(=O)OCC(C)(C)CO", "RECORDED_METRIC": "pH", "MEASUREMENT": 8.3}
{"COMPOUND": "CC(C)C(=O)C(C)(C)C(=O)OCC(C)(C)C(O)C(C)C (stereo not shown)", "RECORDED_METRIC": "pH", "MEASUREMENT": 8.4}
{"COMPOUND": "CC(C)C(=O)C(C)(C)C(=O)OCCO", "RECORDED_METRIC": "pH", "MEASUREMENT": 7.6}

---

Assay: Water miscibility, % organic in water method (gravimetric)
Assay type: physicochemical
Details: saturation point
Classify by measured Water Miscibility % solvent in water layer: T if it is equal to or exceeds 0.07%, F if it is smaller.

{"COMPOUND": "CCCCC(CC)COCCOC(=O)C(C)(C)C(=O)C(C)C (stereo not drawn)", "ASSIGNED_CATEGORY": "F"}
{"COMPOUND": "CC(C)C(=O)C(C)(C)C(=O)OCCOCCOCCOC(=O)C(C)(C)C(=O)C(C)C", "ASSIGNED_CATEGORY": "T"}
{"COMPOUND": "CC(C)C(=O)C(C)(C)C(=O)OCC(C)(C)CO", "ASSIGNED_CATEGORY": "T"}
{"COMPOUND": "CC(C)C(=O)C(C)(C)C(=O)OCCO", "ASSIGNED_CATEGORY": "T"}
{"COMPOUND": "CCCCOCCOCCOC(=O)C(C)(C)C(=O)C(C)C", "ASSIGNED_CATEGORY": "F"}

---

Listing of recorded Viscosity (cps) by entry.
Test: Hydrolytic stability in latex at 120° F., pH and Brookfield viscosity
Type: physicochemical
Conditions: Rhoplex AC 2508, 10 phr, 120° F., 1 week

{"MOLECULE": "CC(C)C(=O)C(C)(C)C(=O)OCC(C)(C)CO [Example 2]", "Viscosity (cps)": 1260}
{"MOLECULE": "CC(C)C(=O)C(C)(C)C(=O)OCC(C)(C)C(O)C(C)C (stereo not shown) [Example 3]", "Viscosity (cps)": 1300}
{"MOLECULE": "CC(C)C(=O)C(C)(C)C(=O)OCCOCCOCCOC(=O)C(C)(C)C(=O)C(C)C [Example 4]", "Viscosity (cps)": 1200}
{"MOLECULE": "CC(C)C(=O)C(C)(C)C(=O)OCCO [Example 1]", "Viscosity (cps)": 1360}

---

Assay: Hydrolytic stability in latex at 120° F., pH and Brookfield viscosity
Format: physicochemical
Settings: Rhoplex AC 2508, 10 phr coalescent, Initial

{"COMPOUND": "CC(C)C(=O)C(C)(C)C(=O)OCCOCCOCCOC(=O)C(C)(C)C(=O)C(C)C", "Viscosity (cps)": 1380}
{"COMPOUND": "CC(C)C(=O)C(C)(C)C(=O)OCCO", "Viscosity (cps)": 1430}
{"COMPOUND": "CC(C)C(=O)C(C)(C)C(=O)OCC(C)(C)C(O)C(C)C (stereo not shown)", "Viscosity (cps)": 1430}
{"COMPOUND": "CC(C)C(=O)C(C)(C)C(=O)OCC(C)(C)CO", "Viscosity (cps)": 1510}

---

Parameter phr of Coalescent required to lower MFFT to 40° F.: see the listing below.
Test: MFFT testing, coalescing efficiency
Details: latex Acronal 296D, linear regression
RECORDED_METRIC: phr of Coalescent required to lower MFFT to 40° F. (phr)

{"COMPOUND": "CC(C)C(=O)C(C)(C)C(=O)OCC(C)(C)CO", "MEASUREMENT": 5.9}
{"COMPOUND": "CC(C)C(=O)C(C)(C)C(=O)OCC(C)(C)C(O)C(C)C (stereo not drawn)", "MEASUREMENT": 6.0}
{"COMPOUND": "CC(C)C(=O)C(C)(C)C(=O)OCCOCCOCCOC(=O)C(C)(C)C(=O)C(C)C", "MEASUREMENT": 5.8}
{"COMPOUND": "CCCCC(CC)COCCOC(=O)C(C)(C)C(=O)C(C)C (stereo not drawn)", "MEASUREMENT": 5.0}
{"COMPOUND": "CCCCOCCOCCOC(=O)C(C)(C)C(=O)C(C)C", "MEASUREMENT": 4.2}
{"COMPOUND": "CC(C)C(=O)C(C)(C)C(=O)OCCO", "MEASUREMENT": 4.2}

---

Test: Hydrolytic stability in latex at 120° F., pH and Brookfield viscosity
Assay type: physicochemical
Conditions: Rhoplex AC 2508, 10 phr, 120° F., 4 weeks
RECORDED_METRIC: pH

{"MOLECULE": "CC(C)C(=O)C(C)(C)C(=O)OCC(C)(C)CO", "MEASUREMENT": 8.3}
{"MOLECULE": "CC(C)C(=O)C(C)(C)C(=O)OCCO", "MEASUREMENT": 7.4}
{"MOLECULE": "CC(C)C(=O)C(C)(C)C(=O)OCCOCCOCCOC(=O)C(C)(C)C(=O)C(C)C", "MEASUREMENT": 8.2}
{"MOLECULE": "CC(C)C(=O)C(C)(C)C(=O)OCC(C)(C)C(O)C(C)C (stereo not shown)", "MEASUREMENT": 8.3}

---

Test: Boiling point of coalescent
Type: physicochemical
RECORDED_METRIC: Boiling Point (° C. @ 760 torr) (°C)

{"MOLECULE": "CC(C)C(=O)C(C)(C)C(=O)OCCO", "MEASUREMENT": 254.8}
{"MOLECULE": "CC(C)C(=O)C(C)(C)C(=O)OCC(C)(C)C(O)C(C)C (stereo not drawn)", "MEASUREMENT": 287.7}
{"MOLECULE": "CC(C)C(=O)C(C)(C)C(=O)OCCOCCOCCOC(=O)C(C)(C)C(=O)C(C)C", "MEASUREMENT": 320.0}
{"MOLECULE": "CC(C)C(=O)C(C)(C)C(=O)OCC(C)(C)CO", "MEASUREMENT": 291.2}
{"MOLECULE": "CCCCC(CC)COCCOC(=O)C(C)(C)C(=O)C(C)C (stereo not drawn)", "MEASUREMENT": 281.6}
{"MOLECULE": "CCCCOCCOCCOC(=O)C(C)(C)C(=O)C(C)C", "MEASUREMENT": 272.1}

---

Experiment: Density, ASTM D 1475-98
Assay type: physicochemical

{"COMPOUND": "CCCCC(CC)COCCOC(=O)C(C)(C)C(=O)C(C)C (stereo not drawn) [Example 6]", "Density (lbs/gal)": "7.80 lbs/gal"}
{"COMPOUND": "CC(C)C(=O)C(C)(C)C(=O)OCC(C)(C)C(O)C(C)C (stereo not drawn) [Example 3]", "Density (lbs/gal)": "8.13 lbs/gal"}
{"COMPOUND": "CC(C)C(=O)C(C)(C)C(=O)OCC(C)(C)CO [Example 2]", "Density (lbs/gal)": "8.34 lbs/gal"}
{"COMPOUND": "CCCCOCCOCCOC(=O)C(C)(C)C(=O)C(C)C [Example 5]", "Density (lbs/gal)": "8.02 lbs/gal"}
{"COMPOUND": "CC(C)C(=O)C(C)(C)C(=O)OCCO [Example 1]", "Density (lbs/gal)": "8.75 lbs/gal"}
{"COMPOUND": "CC(C)C(=O)C(C)(C)C(=O)OCCOCCOCCOC(=O)C(C)(C)C(=O)C(C)C [Example 4]", "Density (lbs/gal)": "8.82 lbs/gal"}
